Origin of values: patent US8557816B2

Below, each entry is listed with its recorded IC50.
TESTED_SYSTEM: AuroraA-TPX2 (Homo sapiens)
Construct: 20 μL of AuroraA-TPX2 KD GST for a final volume of about 41 μL; GST
Sequence (O14965 133-383 limits assumed): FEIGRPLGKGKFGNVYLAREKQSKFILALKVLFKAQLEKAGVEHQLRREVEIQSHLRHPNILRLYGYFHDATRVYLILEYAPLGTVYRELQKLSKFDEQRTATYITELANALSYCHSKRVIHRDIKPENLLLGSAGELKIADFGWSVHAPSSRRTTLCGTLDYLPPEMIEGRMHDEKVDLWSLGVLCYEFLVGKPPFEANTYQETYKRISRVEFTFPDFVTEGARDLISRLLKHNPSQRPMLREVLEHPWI
Sequence (Q9ULW0 1-43 partner limits assumed): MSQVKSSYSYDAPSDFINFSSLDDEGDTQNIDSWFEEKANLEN
ASSAY_SUMMARY: AuroraA-TPX2 Homogeneous Time Resolved Fluorescent (HTRF) kinase assay
Type: biochemical
MEASUREMENT_SETUP: average; read-out: AurA_IC50_IP (uM Avg)
VALUE_KIND: IC50 (µM)

>>> quantitative_readout("COc1cnc2c(Oc3ccc(Nc4nnc(-c5cccc(C#N)c5)c5ccccc45)cc3)ccnc2c1")
0.139
>>> quantitative_readout("COc1cnc2c(Sc3ccc(Nc4nncc5ccccc45)cc3)ccnc2c1")
0.335
>>> quantitative_readout("COc1cc2nccc(Sc3ccc(Nc4nnc(-c5ccc(Cl)cc5)c5ccccc45)cc3)c2[nH]c1=O")
0.034
>>> quantitative_readout("Cc1ccc(-c2nnc(Nc3ccc(Oc4ccnc5cccnc45)cc3)c3ccccc23)cc1N")
0.098
>>> quantitative_readout("COCCn1ccc2nccc(Sc3ccc(Nc4nnc(-c5ccc(Cl)cc5)c5ccccc45)cc3)c21")
0.11
>>> quantitative_readout("COc1cnc2c(Sc3ccc(Nc4nnc(N5CCN6CCCC[C@H]6C5)c5ccccc45)cc3)ccnc2c1")
0.036
>>> quantitative_readout("COc1cnc2c(Oc3ccc(Nc4nnc(-c5ccnc(Cl)c5)c5ccccc45)cc3)ccnc2c1")
0.1
>>> quantitative_readout("N#Cc1cc2nccc(Sc3ccc(Nc4nnc(-c5ccc6c(c5)OCO6)c5ccccc45)cc3)c2s1")
0.062
>>> quantitative_readout("COCCCNc1nnc(Nc2ccc(Sc3ccnc4cc(OC)cnc34)cc2)c2ccccc12")
0.022
>>> quantitative_readout("COc1cnc2c(Oc3ccc(Nc4nnc(-c5ccc(Cl)c(Cl)c5)c5ccccc45)cc3)ccnc2c1")
0.035
>>> quantitative_readout("COc1cnc2c(Oc3ccc(Nc4nnc(-c5ccc([S+](C)[O-])cc5)c5ccccc45)cc3)ccnc2c1 (stereo not shown)")
0.102
>>> quantitative_readout("Cc1csc(-c2nnc(Nc3ccc(Sc4ccnc5ccsc45)cc3)c3ccccc23)c1")
0.037
>>> quantitative_readout("COc1ccc2c(Oc3ccc(Nc4nnc(-c5cccc(OC)n5)c5ccccc45)cc3)ccnc2c1")
0.038
>>> quantitative_readout("CCCN(C)c1nnc(Nc2ccc(Sc3ccnc4cc(OC)cnc34)cc2)c2ccccc12")
0.093
>>> quantitative_readout("Cc1csc(-c2nnc(Nc3ccc(Oc4ccnc5cc(C#N)ccc45)cc3)c3ccccc23)c1")
0.016
>>> quantitative_readout("O=C(c1cc2nccc(Sc3ccc(Nc4nnc(-c5ccc(Cl)cc5)c5ccccc45)cc3)c2s1)N1CCOCC1")
0.058
>>> quantitative_readout("COc1cc2nccc(Nc3ccc(Nc4nnc(-c5ccccc5)c5ccccc45)cc3)c2cn1")
0.042
>>> quantitative_readout("COc1ccc2nccc(Oc3ccc(Nc4nnc(-c5cc(C)cs5)c5ccccc45)cc3)c2c1")
0.049
>>> quantitative_readout("COc1cc(F)cc2nccc(Oc3ccc(Nc4nnc(-c5cc(C)cs5)c5ccccc45)cc3)c12")
0.157
>>> quantitative_readout("COc1cnc2c(Sc3ccc(Nc4nnc(N5CCCCC5)c5ccccc45)cc3)ccnc2c1")
0.044
>>> quantitative_readout("COCCOc1cc(-c2nnc(Nc3ccc(Sc4ccnc5cc(OC)cnc45)cc3)c3ccccc23)ccc1Cl")
0.101
>>> quantitative_readout("COc1cccc(-c2nnc(Nc3ccc(Sc4ccnc5ccccc45)cc3)c3ccccc23)n1")
0.118
>>> quantitative_readout("CCc1cc(-c2ccc(C)cc2)nnc1Nc1ccc(Nc2ccnc3cc(C#N)ccc23)cc1")
0.16
>>> quantitative_readout("COc1cnc2c(Sc3ccc(Nc4nnc(N5CCN6C[C@H](F)C[C@H]6C5)c5ccccc45)cc3)ccnc2c1")
0.014
>>> quantitative_readout("N#Cc1cc2nccc(Sc3ccc(Nc4nnc(-c5ccc(Cl)cn5)c5ccccc45)cc3)c2s1")
0.045
>>> quantitative_readout("COc1cnc2c(Oc3ccc(Nc4nnc(-c5cccc(C)c5)c5ccccc45)cc3)ccnc2c1 [compound 299]")
0.018
>>> quantitative_readout("COc1cnc2c(Oc3ccc(Nc4nnc(-c5ccc(F)c(Cl)c5)c5ccccc45)cc3)ccnc2c1")
0.023
>>> quantitative_readout("CCc1cc(-c2ccccc2)nnc1Nc1ccc(Oc2ccnc3cc(OC)cnc23)cc1")
0.016
>>> quantitative_readout("COc1cnc2c(Oc3ccc(Nc4nnc(-c5ccc(C)c(O)c5)c5ccccc45)cc3)ccnc2c1")
0.026
>>> quantitative_readout("COc1ccc2nccc(Oc3ccc(Nc4nnc(-c5cc(C)cs5)c5ccccc45)cc3)c2n1")
0.056
>>> quantitative_readout("COc1cnc2c(Sc3ccc(Nc4nnc(N5CCC(F)(F)CC5)c5ccccc45)cc3)ccnc2c1")
0.089

---

TESTED_SYSTEM: AuroraB (Homo sapiens, UniProt Q96GD4)
Construct: 20 μL of AuroraB FL H is for a final volume of 41 μL; His
Sequence (Q96GD4 whole entry): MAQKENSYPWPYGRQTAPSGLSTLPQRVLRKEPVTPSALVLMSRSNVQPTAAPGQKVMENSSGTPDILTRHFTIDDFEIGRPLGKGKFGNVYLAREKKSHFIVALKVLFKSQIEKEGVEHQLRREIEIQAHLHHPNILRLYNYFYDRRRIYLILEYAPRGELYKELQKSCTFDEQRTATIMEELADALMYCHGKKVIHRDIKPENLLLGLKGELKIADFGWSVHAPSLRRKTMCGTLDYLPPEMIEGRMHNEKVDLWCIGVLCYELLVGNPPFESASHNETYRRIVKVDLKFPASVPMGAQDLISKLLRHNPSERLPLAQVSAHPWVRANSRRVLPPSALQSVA
ASSAY_SUMMARY: AuroraB Homogeneous Time Resolved Fluorescent (HTRF) kinase assay
Type: biochemical
MEASUREMENT_SETUP: average; read-out: AurB_IC50_IP (uM Avg)
Below, each entry is listed with its recorded IC50.
VALUE_KIND: IC50 (µM)

>>> quantitative_readout("CCOc1nnc(Nc2ccc(Sc3ccnc4cc(OC)cnc34)cc2)c2ccccc12 [compound 512]")
0.12
>>> quantitative_readout("N#Cc1ccc2c(Oc3ccc(Nc4nnc(-c5ccccc5)c5ccccc45)cc3)ccnc2c1 [compound 105]")
0.003
>>> quantitative_readout("COc1cnc2c(Sc3ccc(Nc4nnc(-c5ccc(Cl)cn5)c5ccccc45)cc3)ccnc2c1 [compound 304]")
0.019
>>> quantitative_readout("COc1cnc2c(Oc3ccc(Nc4nnc(-c5ccccc5)c5ccccc45)cn3)ccnc2c1 [Example 41]")
0.009
>>> quantitative_readout("COc1ccc2c(Oc3ccc(Nc4nnc(-c5cccc(OC)n5)c5ccccc45)cc3)ccnc2c1 [compound 100]")
0.006
>>> quantitative_readout("COc1cc2ncnc(Oc3ccc(Nc4nnc(-c5cc(C)cs5)c5ccccc45)cc3)c2cc1OC [compound 153]")
0.012
>>> quantitative_readout("c1ccc(-c2nnc(Nc3ccc(Oc4ccnc5cc(-c6ccoc6)ccc45)cc3)c3ccccc23)cc1 [compound 343]")
0.008
>>> quantitative_readout("N#Cc1cnc2c(Oc3ccc(Nc4nnc(-c5ccc(Cl)cc5)c5ccccc45)cc3)ccnc2c1 [compound 265]")
0.009

---

TESTED_SYSTEM: AuroraA-TPX2 (Homo sapiens, UniProt O14965)
Construct: 20 μL of AuroraA-TPX2 KD GST for a final volume of about 41 μL; GST
ASSAY_SUMMARY: AuroraA-TPX2 Homogeneous Time Resolved Fluorescent (HTRF) kinase assay
Assay type: biochemical
MEASUREMENT_SETUP: average; read-out: AurA_IC50_IP (uM Avg)
VALUE_KIND: IC50 (µM)

>>> quantitative_readout("Clc1ccc(-c2nnc(Nc3ccc(Sc4ccnc5cccnc45)cc3)c3ccccc23)nc1")
0.02
>>> quantitative_readout("COc1cc2nccc(Sc3ccc(Nc4nnc(-c5ccc(Cl)cc5)c5ccccc45)cc3)c2nc1OC")
0.135
>>> quantitative_readout("COc1cnc2c(Oc3ccc(Nc4nnc(-c5ccc6sccc6c5)c5ccccc45)cc3)ccnc2c1")
0.008
>>> quantitative_readout("COc1cnc2c(Sc3ccc(Nc4nnc(-c5ccc(Cl)cc5)c5ccccc45)cc3)ccnc2c1")
0.036
>>> quantitative_readout("Clc1ccc(-c2nnc(Nc3ccc(Sc4ccnc5cc(Br)cnc45)cc3)c3ccccc23)cc1 [compound 301]")
0.035
>>> quantitative_readout("COc1ccc2nccc(Oc3ccc(Nc4nnc(-c5ccc(Cl)cn5)c5ccccc45)cc3)c2c1")
0.082
>>> quantitative_readout("COc1cc2nccc(Oc3ccc(Nc4ncc(-c5ccccc5)c5ccccc45)cc3)c2cn1")
0.326
>>> quantitative_readout("COCCOc1nnc(Nc2ccc(Sc3ccnc4cc(OC)cnc34)cc2)c2ccccc12")
0.072
>>> quantitative_readout("COc1cnc2c(Oc3ccc(Nc4nnc(-c5ccc(F)c(C)c5)c5ccccc45)cc3)ccnc2c1")
0.032
>>> quantitative_readout("COc1cnc2c(Oc3ccc(Nc4nnc(-c5ccccc5)c5c4CCC5)cc3)ccnc2c1")
0.028
>>> quantitative_readout("Cc1cc2nccc(Sc3ccc(Nc4nnc(-c5ccc(Cl)cc5)c5ccccc45)cc3)c2s1")
0.168
>>> quantitative_readout("COc1cnc2c(Sc3ccc(Nc4nnc(N5CCn6ncnc6C5)c5ccccc45)cc3)ccnc2c1")
0.228
>>> quantitative_readout("Cc1csc(-c2nnc(Nc3ccc(Sc4ccnc5cc[nH]c45)cc3)c3ccccc23)c1")
0.088
>>> quantitative_readout("COc1cnc2c(Oc3ccc(Cc4nnc(-c5ccc(C)cc5)c5ccccc45)cc3)ccnc2c1")
0.388
>>> quantitative_readout("COc1cc(OC)c2c(Oc3ccc(Nc4nnc(-c5cc(C)cs5)c5ccccc45)cc3)ccnc2c1")
0.456
